target: GluN1-1a/GluN2B NMDAR (wildtype) (Rattus norvegicus, UniProt P35439+Q00960); format: cell-based; conditions: TEVC, −70 mV, wildtype
Sequence (Q00960 27-1482, other chains not shown): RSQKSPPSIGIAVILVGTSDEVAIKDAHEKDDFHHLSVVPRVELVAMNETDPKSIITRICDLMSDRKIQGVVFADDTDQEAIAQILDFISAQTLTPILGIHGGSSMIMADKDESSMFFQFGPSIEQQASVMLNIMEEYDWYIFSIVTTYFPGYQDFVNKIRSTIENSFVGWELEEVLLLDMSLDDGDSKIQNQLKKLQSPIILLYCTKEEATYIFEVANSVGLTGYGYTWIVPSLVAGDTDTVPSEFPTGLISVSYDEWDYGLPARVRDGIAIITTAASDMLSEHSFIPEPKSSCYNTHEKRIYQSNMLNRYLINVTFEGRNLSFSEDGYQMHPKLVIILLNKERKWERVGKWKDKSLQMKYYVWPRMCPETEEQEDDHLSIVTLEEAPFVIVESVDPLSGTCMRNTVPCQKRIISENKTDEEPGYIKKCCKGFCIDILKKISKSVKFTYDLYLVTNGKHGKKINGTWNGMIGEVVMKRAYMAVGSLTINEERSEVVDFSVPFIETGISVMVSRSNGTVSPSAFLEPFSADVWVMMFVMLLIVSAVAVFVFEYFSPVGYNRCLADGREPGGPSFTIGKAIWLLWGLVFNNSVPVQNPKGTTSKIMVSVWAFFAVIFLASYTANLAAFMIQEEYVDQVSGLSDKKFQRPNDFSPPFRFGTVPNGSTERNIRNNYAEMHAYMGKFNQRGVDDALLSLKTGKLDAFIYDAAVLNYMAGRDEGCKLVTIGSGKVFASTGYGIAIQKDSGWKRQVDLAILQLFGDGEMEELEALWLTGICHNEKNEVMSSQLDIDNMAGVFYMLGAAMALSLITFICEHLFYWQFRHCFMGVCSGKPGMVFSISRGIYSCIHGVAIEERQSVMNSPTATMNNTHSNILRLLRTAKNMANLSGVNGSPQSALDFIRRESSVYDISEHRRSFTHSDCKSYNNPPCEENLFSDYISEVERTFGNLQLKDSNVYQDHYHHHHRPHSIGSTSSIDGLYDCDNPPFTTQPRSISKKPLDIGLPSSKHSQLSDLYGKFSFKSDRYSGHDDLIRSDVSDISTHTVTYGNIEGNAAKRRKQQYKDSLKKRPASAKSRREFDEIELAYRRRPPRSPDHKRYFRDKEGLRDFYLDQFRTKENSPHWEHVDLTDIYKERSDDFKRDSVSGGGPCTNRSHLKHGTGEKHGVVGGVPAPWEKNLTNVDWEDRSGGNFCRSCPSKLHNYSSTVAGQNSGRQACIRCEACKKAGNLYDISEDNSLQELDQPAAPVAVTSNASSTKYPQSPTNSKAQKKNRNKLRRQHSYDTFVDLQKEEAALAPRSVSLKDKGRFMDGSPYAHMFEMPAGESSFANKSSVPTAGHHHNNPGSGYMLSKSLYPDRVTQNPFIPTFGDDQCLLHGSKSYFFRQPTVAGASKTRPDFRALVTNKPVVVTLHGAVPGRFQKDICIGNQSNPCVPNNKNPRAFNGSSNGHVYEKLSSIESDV
property label: p (slope of the dose-response curve)
Just the number.

Reference set, count: 8
{"compound": "C[C@@H]1[C@H](O)c2ccc(O)cc2CCN1CCCCc1ccccc1", "experimental system": "GluN1-1a/GluN2B NMDAR (wildtype) (Rattus norvegicus, UniProt P35439+Q00960)", "p (slope of the dose-response curve)": 1.08}
{"compound": "Oc1ccc2c(c1)CCN([C@H]1CC[C@H](c3ccccc3)CC1)CC2O (stereo partly drawn)", "experimental system": "GluN1-1a/GluN2B NMDAR (wildtype) (Rattus norvegicus, UniProt P35439+Q00960)", "p (slope of the dose-response curve)": 0.70}
{"compound": "COc1ccc2c(c1)CCN(CCCCc1ccccc1)CC2O (stereo not drawn)", "experimental system": "GluN1-1a/GluN2B NMDAR (wildtype) (Rattus norvegicus, UniProt P35439+Q00960)", "p (slope of the dose-response curve)": 0.70}
{"compound": "Oc1ccc2c(c1)CCN([C@H]1CC[C@@H](c3ccccc3)CC1)CC2O (stereo partly drawn)", "experimental system": "GluN1-1a/GluN2B NMDAR (wildtype) (Rattus norvegicus, UniProt P35439+Q00960)", "p (slope of the dose-response curve)": 0.62}
{"compound": "Oc1ccc2c(c1)CCN(CCCCc1ccccc1)CC2", "experimental system": "GluN1-1a/GluN2B NMDAR (wildtype) (Rattus norvegicus, UniProt P35439+Q00960)", "p (slope of the dose-response curve)": 0.93}
{"compound": "Oc1ccc2c(c1)CCN(CCCCc1ccccc1)CC2O (racemic)", "experimental system": "GluN1-1a/GluN2B NMDAR (wildtype) (Rattus norvegicus, UniProt P35439+Q00960)", "p (slope of the dose-response curve)": 1.25}
{"compound": "Oc1ccc2c(c1)CCN(CCCCc1ccccc1)C[C@@H]2O [compound (R)-1]", "experimental system": "GluN1-1a/GluN2B NMDAR (wildtype) (Rattus norvegicus, UniProt P35439+Q00960)", "p (slope of the dose-response curve)": 1.11}
{"compound": "CC(C(O)c1ccc(O)cc1)N1CCC(Cc2ccccc2)CC1 (stereo not drawn) [ifenprodil, reference compound]", "experimental system": "GluN1-1a/GluN2B NMDAR (wildtype) (Rattus norvegicus, UniProt P35439+Q00960)", "p (slope of the dose-response curve)": 0.97}

Return reported p (slope of the dose-response curve); argument: Oc1ccc2c(c1)CCN(CCCCc1ccccc1)C[C@H]2O [compound (S)-1]
0.98

// provenance: paper PMC6858350
